Target: purified Human plasma kallikrein (Homo sapiens (Human), UniProt P03952)
Sequence (P03952 391-638): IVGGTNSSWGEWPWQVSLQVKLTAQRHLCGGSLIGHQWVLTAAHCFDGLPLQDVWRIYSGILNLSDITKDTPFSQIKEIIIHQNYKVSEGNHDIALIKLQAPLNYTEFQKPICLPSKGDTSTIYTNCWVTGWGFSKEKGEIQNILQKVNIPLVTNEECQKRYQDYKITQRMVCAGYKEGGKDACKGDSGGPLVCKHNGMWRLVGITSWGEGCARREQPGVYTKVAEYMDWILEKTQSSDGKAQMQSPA
Sequence (P03952 20-390 partner): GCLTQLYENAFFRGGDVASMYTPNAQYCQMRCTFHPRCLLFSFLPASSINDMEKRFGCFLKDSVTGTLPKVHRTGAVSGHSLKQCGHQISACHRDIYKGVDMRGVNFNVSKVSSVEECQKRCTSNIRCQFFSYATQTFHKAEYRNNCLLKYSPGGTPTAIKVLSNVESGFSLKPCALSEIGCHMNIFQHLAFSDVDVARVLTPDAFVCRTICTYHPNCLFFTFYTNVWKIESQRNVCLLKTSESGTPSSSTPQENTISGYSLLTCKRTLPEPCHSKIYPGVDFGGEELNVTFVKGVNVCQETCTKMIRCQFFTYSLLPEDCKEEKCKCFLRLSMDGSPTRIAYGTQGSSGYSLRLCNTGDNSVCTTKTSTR
Assay: Kallikrein Assay
Format: biochemical
Conditions: purified Human plasma kallikrein 0.5 nM, substrate Acetyl-K-P-R-AFC, pH 7.4; read-out: P. KLK IC50
Procedure: The effectiveness of a compound of the present invention as an inhibitor of Kallikrein can be determined using a relevant purified serine protease, and an appropriate synthetic substrate. The rate of hydrolysis of the chromogenic or fluorogenic substrate by the relevant serine protease was measured both in the absence and presence of compounds of the present invention. […] A decrease in the rate of fluorescence change in the presence of inhibitor is indicative of enzyme inhibition. […]
measurementType: pIC50
pIC50 is a log-scale quantity: -log10 of the concentration expressed in molar.

Ask | Recorded pIC50 for `O=C(Cc1ccc(-c2c(F)ccc(Cl)c2F)c[n+]1[O-])Nc1ccc(C(=O)O)cc1` , please?
Reply | 5.80

Ask | Recorded pIC50 for O=C(O)c1ccc(NC(=O)C(CC2CC2)c2ccc(-c3cc(Cl)ccc3-n3cc(CO)nn3)c[n+]2[O-])cc1 (racemic) , please?
Reply | 5.79

Ask | Recorded pIC50 for O=C(O)c1ccc(NC(=O)C(CC2CC2)c2ccc(-c3cc(Cl)ccc3-n3cc(C(F)F)nn3)c[n+]2[O-])cc1 (racemic) [Example 41] , please?
Reply | 6.44

Ask | Recorded pIC50 for `O=C(O)c1ccc(NC(=O)[C@H](Cc2ccccc2)c2ccc(-c3c(F)ccc(Cl)c3F)c[n+]2[O-])cc1` , please?
Reply | 7.74

Ask | Recorded pIC50 for O=C(O)c1ccc(NC(=O)C(CC2CC2)c2ccc(-c3cc(Cl)ccc3-n3cnnn3)c[n+]2[O-])cc1F (single isomer, unassigned) [Example 44] , please?
Reply | 5.49

Ask | Recorded pIC50 for `O=C(O)c1ccc(NC(=O)[C@@H](Cc2ccc(F)cc2)c2ccc(-c3cc(Cl)ccc3-n3cnnn3)c[n+]2[O-])cc1` , please?
Reply | 7.17

Every entry's value here was drawn from patent US9783530B2.
